Reference source for all entries: PubChem BioAssay (NCI)

Tested on: U251 CNS
PROTOCOL: NCI tumour cell line growth inhibition, 48 h
Provide the reported TGI of each item.

Item CC(C)(C)CC(C)(C)NCC(O)COc1ccc(C(C)(C)c2ccc(OCC(O)CNC(C)(C)CC(C)(C)C)cc2)cc1 (stereo unspecified) : provide TGI
2.2 µM

For NC1=C(O)C(=O)C(c2c[nH]c3ccc(OCc4ccccc4)cc23)O1 (stereo unspecified) , write its TGI.
> 100 µM

Read off the recorded TGI for Cc1c(C2CCSc3ccccc3N2)sc2ccccc12 (stereo unspecified)
> 100 µM

Report measured TGI; entry is `Cc1ccsc1/C=N/Nc1cc(C)c2ccccc2n1`
31.4 µM

Give TGI for the following compound: COc1cc([C@@H]2c3cc4c(cc3[C@@H](NCc3cccc(F)c3)C3COC(=O)[C@@H]32)OCO4)cc(OC)c1O (stereo partly specified)
7.11 µM

Given the compound `NC(=S)NS(=O)(=O)c1ccc(Cl)cc1` , write its reported TGI.
> 100 µM

Given the compound `CCOC(=O)C(=O)Nc1nc2ccc(C)cc2s1` , write its reported TGI.
> 100 µM

Write down TGI measured for item `C=C(CN1CCN(c2ccc(F)c(Cl)c2)CC1)c1ccc(C(=O)Nc2ccccc2N)cc1`
23.7 µM

Identify the reported TGI for the following entry. CC1=C2C3OC(=O)C(C)C3C(O)C[C@@]2(C)C(=O)CC1 (stereo partly specified)
> 100 µM

Identify measured TGI associated with `Nc1ccc(C(=O)O)cc1`
> 100 µM

State its TGI for this compound: `CN(C)C(=S)/N=c1\ss/c(=N\S(=O)(=O)c2ccccc2)n1C`
> 100 µM
